- Test system: NCI-H522 lung
- Measurement Description: NCI tumour cell line growth inhibition, 48 h; in the data active = GI50 below about 0.43 µM; inactive = the rest
Log the outcome using a class from t = active, f = inactive

Worked examples follow.
>  <Structure Notation>
Nc1cc(N)c2nc(-c3ccccc3)c(NCCc3ccc(Cl)c(Cl)c3)nc2c1

>  <Class Label>
f

$$$$
>  <Structure Notation>
CC(C)N(Cc1c(F)cccc1F)c1ccc(CO)c(Cl)c1

>  <Class Label>
f

$$$$

IN: How did this test come out for O=S(=O)(Nc1ccc(Cl)c(F)c1)c1ccc(-c2cnc(C3CC3)o2)cc1 ?
OUT: t

IN: Dear colleague, could you share the recorded outcome for COc1cc2c(cc1O)CC[C@@H]1[C@@H]2CC[C@]2(C)[C@@H](OCCCN(C)C)CC[C@@H]12 when you have a moment?
OUT: t

IN: Please indicate how the test categorized COc1cccc(/C=C2\COc3ccc(O)c(O)c3C2=O)c1 .
OUT: t
